Here, each record is paired with measured pEC50 data.
target: Peroxisome proliferator-activated receptor alpha (Homo sapiens); assay: Agonist activity at human PPARalpha transfected in human MCF7 cells after 16 hrs by luciferase reporter gene assay
Sequence (Q07869 whole entry): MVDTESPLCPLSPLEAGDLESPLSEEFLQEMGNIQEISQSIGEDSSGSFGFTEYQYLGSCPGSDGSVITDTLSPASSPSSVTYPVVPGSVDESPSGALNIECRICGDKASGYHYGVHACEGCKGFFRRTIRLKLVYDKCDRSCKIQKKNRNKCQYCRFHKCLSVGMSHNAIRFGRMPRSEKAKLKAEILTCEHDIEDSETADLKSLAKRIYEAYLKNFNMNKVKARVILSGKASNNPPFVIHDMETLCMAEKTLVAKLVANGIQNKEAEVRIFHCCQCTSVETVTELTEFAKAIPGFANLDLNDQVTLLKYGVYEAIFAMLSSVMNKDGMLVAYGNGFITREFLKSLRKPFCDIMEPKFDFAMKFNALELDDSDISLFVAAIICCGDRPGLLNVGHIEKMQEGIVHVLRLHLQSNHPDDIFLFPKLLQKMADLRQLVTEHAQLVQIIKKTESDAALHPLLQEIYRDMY
pEC50: −log10 of the molar value.
PROPERTY: pEC50

CCCCCCCCCCCCNC(=O)c1ccc(NC(=O)c2cccc(CN3C(=O)OC[C@H]3Cc3ccccc3)c2)cc1 :: 5.18
O=C(Nc1ccc(C(=O)NC2CC2)cc1)c1cccc(CN2C(=O)OC[C@H]2Cc2ccccc2)c1 :: 5.70
C[C@@H](Cc1cccc(NC(=O)c2ccc(NC(=O)Cc3ccc(C(C)(C)C)cc3)cc2)c1)C(=O)O :: 6.06
CC(C)(C)c1ccc(CNC(=O)c2ccc(NC(=O)c3cccc(CN4C(=O)OC[C@@H]4Cc4ccccc4)c3)cc2)cc1 :: 6.12
C[C@@H](Cc1cccc(NC(=O)c2ccc(NC(=O)Cc3ccc(C(C)(C)C)cc3)cc2)c1)C(=O)N1C(=O)OC[C@H]1Cc1ccccc1 :: 6.02
CCCCCC(=O)Nc1ccc(C(=O)Nc2cccc(C[C@H](C)C(=O)O)c2)cc1 :: 6.01
CCCCCC(=O)Nc1ccc(C(=O)Nc2cccc(C[C@H](C)C(=O)N3C(=O)OC[C@H]3Cc3ccccc3)c2)cc1 :: 5.72
